target: Human CB2 (Homo sapiens, UniProt P34972); construct: expressed in transfected cells; membrane preparation; experiment: Human CB2 Radioligand Binding Assay; details: membranes from stably transfected CHO CB2 cells; competition with [3H] CP-55,940; read-out: CB2 Ligand Binding Asssay
Sequence (P34972 whole entry): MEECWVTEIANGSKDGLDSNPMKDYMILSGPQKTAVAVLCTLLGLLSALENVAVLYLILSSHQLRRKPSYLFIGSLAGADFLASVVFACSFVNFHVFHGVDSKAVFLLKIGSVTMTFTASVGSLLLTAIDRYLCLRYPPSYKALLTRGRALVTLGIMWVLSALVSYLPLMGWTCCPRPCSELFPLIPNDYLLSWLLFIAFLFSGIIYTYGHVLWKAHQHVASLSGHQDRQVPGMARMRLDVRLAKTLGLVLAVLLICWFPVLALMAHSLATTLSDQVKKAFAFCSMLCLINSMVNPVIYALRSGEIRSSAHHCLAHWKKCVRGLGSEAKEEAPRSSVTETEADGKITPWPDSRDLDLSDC
Recorded metric: IC50 (radioligand displacement)

Known IC50 (radioligand displacement) results, listed for orientation:
{"Molecule": "CC(C)(C)c1ccc(C2c3cccn3CCN2C(=O)Nc2ccc(F)cc2F)cc1 (stereo not shown)", "IC50 (radioligand displacement)": "< 1000 nM"}
{"Molecule": "O=C(Nc1ccc(C(F)(F)F)cc1)C1=C(c2ccccc2)c2cccn2CC1", "IC50 (radioligand displacement)": "> 1000 nM"}
{"Molecule": "CC(C)(C)c1ccc(CC2c3cccn3CCCN2C(=O)Nc2ccc(Cl)cc2Cl)cc1 (stereo not shown)", "IC50 (radioligand displacement)": "< 1000 nM"}
{"Molecule": "CC(C)(C)c1ccc(C2=C(C(=O)Nc3ccc(Cl)cc3Cl)CCn3cccc32)cc1", "IC50 (radioligand displacement)": "> 1000 nM"}
{"Molecule": "CC(C)(C)c1ccc(Cc2ccc3n2CCCN3c2nc3ccccc3o2)cc1", "IC50 (radioligand displacement)": "> 1000 nM"}

// IC50 (radioligand displacement) lookup, key: CC(C)(C)c1ccc(C2c3cccn3CCCN2C(=O)Cc2ccc(F)cc2)cc1 (stereo not shown)
< 1000 nM

// IC50 (radioligand displacement) lookup, key: CC(C)(C)c1ccc(C2c3cccn3CCCC2C(=O)Nc2ccc(Cl)cc2)cc1 (stereo not shown)
< 1000 nM

// IC50 (radioligand displacement) lookup, key: O=C(Nc1ccc(Cl)cc1)[C@H]1CCCn2cccc2[C@@H]1c1ccccc1 (relative stereo)
> 1000 nM

// IC50 (radioligand displacement) lookup, key: CC(C)(C)c1ccc(C2c3cccn3CCCC2NC(=O)Nc2ccc(Cl)cc2Cl)cc1 (single isomer, unassigned) [Example 119]
> 1000 nM

// IC50 (radioligand displacement) lookup, key: CC(C)(C)c1ccc(C2=C(NC(=O)Nc3ccc(F)cc3F)CCCn3cccc32)cc1
< 1000 nM

// IC50 (radioligand displacement) lookup, key: CC(C)(C)c1ccc(C2c3nccn3CCCN2C(=O)c2ccc(F)cc2F)cc1 (stereo not shown)
< 1000 nM

// IC50 (radioligand displacement) lookup, key: CC(C)(C)c1ccc(C2c3ccnn3CCCN2C(=O)Nc2ccc(Cl)cc2Cl)cc1 (stereo not shown)
< 1000 nM

// IC50 (radioligand displacement) lookup, key: Cc1cccc(C2c3cccn3CCCN2C(=O)Nc2ccc(Cl)cc2Cl)c1 (stereo not shown)
> 1000 nM

// IC50 (radioligand displacement) lookup, key: O=C(Nc1ccc(F)cc1F)C1CCCn2cccc2C1c1ccccc1 (single isomer, unassigned)
< 1000 nM

// IC50 (radioligand displacement) lookup, key: CC(C)(C)c1ccc(CC2=C(C(=O)Nc3ccc(Cl)cc3)CCCn3cncc32)cc1
> 1000 nM

// IC50 (radioligand displacement) lookup, key: CC(C)(C)c1ccc(C2c3cccn3CCCC2NC(=O)Nc2ccc(Cl)cc2Cl)cc1 (single isomer, unassigned) [Example 118]
< 1000 nM

* * *

Recorded IC50 (radioligand displacement), one value per entry.
target: Human CB2 (Homo sapiens, UniProt P34972); construct: expressed in transfected cells; membrane preparation; assay: Human CB2 Radioligand Binding Assay; settings: membranes from stably transfected CHO CB2 cells; competition with [3H] CP-55,940; read-out: CB2 Ligand Binding Asssay

{"Molecule": "O=C(Nc1ccc(Cl)cc1)C1CCn2cccc2C1c1ccccc1 (mixture of isomers)", "IC50 (radioligand displacement)": "> 1000 nM"}
{"Molecule": "CC(C)(C)c1ccc(C2=C(C(=O)Nc3ccc(Cl)cc3Cl)CCCn3cccc32)cc1", "IC50 (radioligand displacement)": "< 1000 nM"}
{"Molecule": "CC(C)(C)c1ccc(C2c3cccn3CCCN2C(=O)CN2CCOCC2)cc1 (centres unmarked)", "IC50 (radioligand displacement)": "> 1000 nM"}
{"Molecule": "O=C(Nc1ccc(F)cc1F)C1CCn2cccc2C1c1ccccc1 (mixture of isomers)", "IC50 (radioligand displacement)": "> 1000 nM"}
{"Molecule": "CC(C)(C)c1ccc(C2=C(NC(=O)Nc3ccc(Cl)c(Cl)c3)CCCn3cccc32)cc1", "IC50 (radioligand displacement)": "> 1000 nM"}

// IC50 (radioligand displacement) lookup, key: CC(C)(C)c1ccc(C2c3ccnn3CCCN2C(=O)Nc2ccc(F)cc2F)cc1 (centres unmarked)
< 1000 nM

// IC50 (radioligand displacement) lookup, key: CC(C)(C)c1ccc(CC2[C@@H]3CCCN3CCCN2C(=O)Nc2ccccc2)cc1 (mixture of isomers)
> 1000 nM

// IC50 (radioligand displacement) lookup, key: CC(C)(C)c1ccc(C2c3cccn3CCC2C(=O)Nc2ccc(C(F)(F)F)cc2)cc1 (centres unmarked)
> 1000 nM

* * *

target: Human CB2 (Homo sapiens, UniProt P34972); construct: expressed in transfected cells; membrane preparation; assay: Human CB2 Radioligand Binding Assay; conditions: membranes from stably transfected CHO CB2 cells; competition with [3H] CP-55,940; read-out: CB2 Ligand Binding Asssay
Recorded IC50 (radioligand displacement), one value per entry.

Known IC50 (radioligand displacement) results, listed for orientation:
{"Compound": "CC(C)(C)c1ccc(C2=C(C(=O)Nc3ccc(F)cc3F)CCn3cccc32)cc1", "Assayed target": "Human CB2 (Homo sapiens, UniProt P34972)", "IC50 (radioligand displacement)": "> 1000 nM"}
{"Compound": "CC(C)(C)c1ccc(C2c3cccn3CCCC2C(=O)Nc2ccc(C(F)(F)F)cc2)cc1 (centres unmarked)", "Assayed target": "Human CB2 (Homo sapiens, UniProt P34972)", "IC50 (radioligand displacement)": "< 1000 nM"}
{"Compound": "CC(C)(C)c1ccc(C2c3cccn3CCC2C(=O)Nc2ccc(OC(F)(F)F)cc2)cc1 (centres unmarked)", "Assayed target": "Human CB2 (Homo sapiens, UniProt P34972)", "IC50 (radioligand displacement)": "> 1000 nM"}
{"Compound": "CC(C)(C)c1ccc(C2NCCn3cccc32)cc1 (centres unmarked)", "Assayed target": "Human CB2 (Homo sapiens, UniProt P34972)", "IC50 (radioligand displacement)": "> 1000 nM"}
{"Compound": "CC(C)(C)c1ccc(C2c3nccn3CCCN2C(=O)Nc2ccc(F)c(F)c2)cc1 (centres unmarked)", "Assayed target": "Human CB2 (Homo sapiens, UniProt P34972)", "IC50 (radioligand displacement)": "< 1000 nM"}
{"Compound": "CC(C)(C)C1CCC(C2c3cccn3CCCN2C(=O)Nc2ccc(Cl)cc2Cl)CC1 (centres unmarked)", "Assayed target": "Human CB2 (Homo sapiens, UniProt P34972)", "IC50 (radioligand displacement)": "< 1000 nM"}
{"Compound": "O=C(Nc1ccc(F)cc1F)C1=C(c2ccccc2)c2cccn2CCC1", "Assayed target": "Human CB2 (Homo sapiens, UniProt P34972)", "IC50 (radioligand displacement)": "> 1000 nM"}
{"Compound": "O=C(Nc1ccc(F)c(F)c1)C1=C(c2ccccc2)c2cccn2CCC1", "Assayed target": "Human CB2 (Homo sapiens, UniProt P34972)", "IC50 (radioligand displacement)": "< 1000 nM"}

// IC50 (radioligand displacement) lookup, key: O=C(Nc1ccc(F)cc1F)N1CCCn2cccc2C1c1ccccc1 (centres unmarked)
> 1000 nM

// IC50 (radioligand displacement) lookup, key: O=C(Nc1ccc(Cl)cc1Cl)N1CCCn2cccc2C1Cc1ccccc1 (centres unmarked)
> 1000 nM

// IC50 (radioligand displacement) lookup, key: O=C(Nc1ccc(OC(F)(F)F)cc1)C1CCn2cccc2C1c1ccccc1 (mixture of isomers)
> 1000 nM

// IC50 (radioligand displacement) lookup, key: CC(C)(C)c1ccc(C2=C(C(=O)Nc3ccc(F)cc3F)CCCn3cncc32)cc1
> 1000 nM

// IC50 (radioligand displacement) lookup, key: CC(C)(C)c1ccc(C2c3nccn3CCCN2C(=O)c2ccc(Cl)cc2Cl)cc1 (centres unmarked)
> 1000 nM

// IC50 (radioligand displacement) lookup, key: CC(C)(C)c1ccc(C2c3cccn3CCCC2NC(=O)Nc2ccc(Cl)c(Cl)c2)cc1 (single isomer, unassigned) [Example 121]
> 1000 nM

// IC50 (radioligand displacement) lookup, key: CC(C)(C)C1CCC(C2c3cccn3CCCN2C(=O)Nc2ccc(F)cc2F)CC1 (centres unmarked)
< 1000 nM

// IC50 (radioligand displacement) lookup, key: CC(C)(C)c1ccc(C2=C(C(=O)Nc3ccc(Cl)c(Cl)c3)CCCn3cncc32)cc1
< 1000 nM

// IC50 (radioligand displacement) lookup, key: CC(C)(C)c1ccc(C2c3cccn3CCCC2NC(=O)Nc2ccc(C(F)(F)F)cc2)cc1 (mixture of isomers)
< 1000 nM

Data provenance: patent US20090062253A1
